For reference, the following pIC50 results for MAGL (Homo sapiens, UniProt Q99685) were taken from various sources.
Please report pIC50 as the negative decimal logarithm of the molar concentration, giving only the number.

Consider the following illustrative entries.
>>> print(df.to_string())
                                   molecule  recorded_measurement
0  Cn1ccc(C(c2ccccc2)C2CCN(C(=O)c3ccc4c(c3)NC(=O)CO4)CC2)cc1=O (single isomer, unassigned)                  7.10
1  O=C(c1cccc(-c2cnn[nH]2)c1Cl)N1CCN2C[C@@H](c3ccc(F)c(Cl)c3)OC[C@@H]2C1                  7.30
2  Cc1c(C(=O)N2CC(N[C@H]3CCN(C(=O)c4nccs4)C3)C2)sc2cc(F)ccc12                  7.47
3  COCCN(c1ccc(C2CN(C(=O)CC[C@@H]3COC(=O)N3)C2)cc1)c1cccnc1                  8.70

Okay, next one:
q: Which pIC50 value is on record for `Cc1ccc(CCC2CN(C(=O)N3CC[C@@H]4OCC(=O)N[C@@H]4C3)C2)c(C(F)(F)F)c1` ?
a: 8.70

----------
For reference, the following IC50 results for MAGL (Homo sapiens) were taken from various sources.

>>> df
                                   compound  recorded_measurement
0  O=C(O)c1ccn(C(=O)N2CCC3(CCN(Cc4ccc(Cl)cc4N4CCCC4)C3)CC2)n1        100 to 1000 nM
1  CS(=O)(=O)Nc1ccn(C(=O)N2CCN(Cc3ccc(C(F)(F)F)cc3N3CC4COCC4C3)CC2)n1 (stereo not shown)              ≤ 100 nM
2  CCCCCCCc1ccc(C(=O)N2CC(N3CCN(C(=O)c4nccs4)CC3)C2)cc1                < 5 nM

q: For the record `CC(=O)Nc1ccn(C(=O)N2CCC3(CCCN3Cc3ccc(C)c(Cl)c3)CC2)n1` , what value of IC50 is listed for MAGL (Homo sapiens)?
a: ≤ 100 nM

----------
pIC50: −log10 of the molar value.
For reference, the following pIC50 results for MAGL (Homo sapiens, UniProt Q99685) were taken from various sources.

                           structure_string  recorded_measurement
0  O=C(c1cscn1)N1CCN(C2CN(C(=O)c3cc4nc(C(F)(F)F)ccc4[nH]3)C2)CC1                < 4.78
1  O=C(c1ccc(OCc2cccc(Cl)c2)cc1)N1CC(N2CCN(C(=O)c3nccs3)CC2)C1                > 8.30
2  O=C(O)CCCNc1cc(C(F)(F)F)ccc1CN1CCN(C(=O)OC(C(F)(F)F)C(F)(F)F)CC1                > 7.00
3  Cc1c(C(=O)N2CC(N[C@H]3CCN(C(=O)c4nccs4)C3)C2)sc2ccc(-c3cccc(C(F)(F)F)c3)cc12                > 8.30
4  O=C(c1ccc(-c2nc(-c3ccccc3Cl)cs2)cc1)N1CC(N2CCN(C(=O)c3nccs3)CC2)C1                > 8.30

Okay, next one:
q: For the record `Cn1cc(Cc2cccc(F)c2)c2ccc(C(=O)N3CC(N4CCN(C(=O)c5nccs5)CC4)C3)cc21` , what value of pIC50 is listed for MAGL (Homo sapiens, UniProt Q99685)?
a: > 8.30
